experiment: Human HepG2 cell viability assay in 384 well format; format: toxicity, cell-based; parameters: dose 125 nL, time 70.5 hour; concentration not given beside the values; settings: HepG2 cells, read-out: Inhibition
READOUT LABEL: cytotoxicity at 70.5 h

[[record]]
compound = "CN1CC(=O)N(c2ccccc2)CC12CCN(Cc1nccn1C)C2 (centres undefined)"
obs_value = "4.89%"

[[record]]
compound = "CC(C)(C)c1n[nH]c(C2CN(C(=O)c3cc(C4CC4)[nH]n3)CCO2)n1 (centres undefined)"
obs_value = "-1.31%"

[[record]]
compound = "CC(C)c1nc(Cn2cncn2)n(-c2ccccn2)n1"
obs_value = "-4.77%"

[[record]]
compound = "CC(C)c1noc(-c2ccc(N(C)C3CCOCC3)nc2)n1"
obs_value = "10.8%"

[[record]]
compound = "NCCO[C@H]1C[C@@H](O)C12CCN(C(=O)COc1cccc(Cl)c1)CC2"
obs_value = "-5.89%"

[[record]]
compound = "NC(=O)c1cc2c(nc1Oc1ccc(CN3CCCC3)cc1F)CCC2"
obs_value = "-10.9%"


Give me cytotoxicity at 70.5 h for each of these compounds, listed below.
1. COc1cc2c(cc1-c1nc3c(cnn3C(C)C(C)C)[nH]1)OCO2 (centres undefined)
2. CN(C)CC1(O)CCCN(c2ccnc3c(C(F)(F)F)cccc23)C1 (centres undefined)

1. -0.404%
2. -5.96%

* * *

experiment: Human HepG2 cell viability assay in 384 well format; type: toxicity, cell-based; parameters: dose 125 nL, time 70.5 hour; concentration not given beside the values; settings: HepG2 cells, read-out: Inhibition
Would you mind telling me the reported cytotoxicity at 70.5 h of each entry?
A complete answer gives the number followed by the unit.

Respectfully, I request cytotoxicity at 70.5 h for each entry included below.
1. CCc1[nH]c2c(CNc3cc(C)nc(NC)n3)cc(C)cc2c1C
2. Cn1c(NCc2ccc(C(N)=O)cc2)nc2cc(Cl)ccc21
3. COc1ccc(-c2nnc([C@H]3CCN(CC4CC4)C3)o2)cc1

1. 98.3%
2. 18.9%
3. 2.78%

I'm hoping you can list cytotoxicity at 70.5 h for every compound here, please.
1. OC(COCc1ccccc1Cl)CN1CC(n2cccn2)C1 (stereo unspecified)
2. Fc1cccc(C2(CNC3CCOC4(CCOCC4)C3)CCOCC2)c1 (stereo unspecified)
3. O=C(NC1CCCC1)[C@H]1CC[C@@H]2[C@@H](CCN2c2ncc(F)cn2)O1
4. Cn1ccc(NC(=O)Cc2ccccc2F)n1
5. CCN(CC)C(=O)Cn1ccc2cc(NC(=O)C3CCCCC3)ccc21
6. Cn1nccc1CNC(=O)CCn1nc(C(F)(F)F)c(Cl)c1C1CC1
7. COC(=O)CNC(=O)C(C(C)C)n1cnc2cc(F)c(F)cc21 (stereo unspecified)

["4.22%", "-5.85%", "13.4%", "19.9%", "14.5%", "-3.15%", "5.81%"]

Dear colleague, please send me the reported cytotoxicity at 70.5 h for `O=C(Cc1ccsc1)N1CCC(c2noc(-c3ccncc3)n2)CC1` when you can. -0.304%

* * *

assay: Human HepG2 cell viability assay in 384 well format; assay type: toxicity, cell-based; parameters: dose 125 nL, time 70.5 hour; concentration not given beside the values; conditions: HepG2 cells, read-out: Inhibition
Can you tell me cytotoxicity at 70.5 h for the items I'm about to list?
Numbers only, in %.

[[record]]
molecule = "CS(=O)(=O)Nc1ccc2c(c1)NC(=O)CC2c1cnn2cccnc12 (stereo unspecified)"
obs_value = 17.5

[[record]]
molecule = "CCOCC1CN(C(=O)c2ccco2)Cc2nn(C)cc21 (stereo unspecified)"
obs_value = -9.75

[[record]]
molecule = "CC(CNS(=O)(=O)CCCC#N)c1ccsc1 (stereo unspecified)"
obs_value = -3.18

[[record]]
molecule = "COc1ccc2c(c1)NC(=O)C2OC(=O)Cc1ccccc1C (stereo unspecified)"
obs_value = 31.3

[[record]]
molecule = "Cc1ccc(CN2CCc3[nH]nc(C(=O)N4CCNC(=O)C4)c3C2)s1"
obs_value = 3.82


Check the records and state cytotoxicity at 70.5 h for CCc1n[nH]c(C2CN(C(=O)c3cc4c(s3)CCCC4)CCO2)n1 (stereo unspecified) 4.71
